Assignment: determine reported pIC50 for the given molecules.
- Tested system: MMP-14 (Homo sapiens)
- Construct: purchased Calbiochem
- Method: MMP inhibition assay, fluorogenic substrate FS-6, MMP-14
- Assay type: biochemical
- Condition context: substrate FS-6 2 μM; enzyme and inhibitor incubated 4 h at 25° C.
Answers are plain numbers, as −log10 of the molar value.

Below, each entry is followed by its recorded pIC50 result.
# Molecule, pIC50
data = [
    ("CC(=O)NCC[C@H](C(=O)NO)N(OC(C)C)S(=O)(=O)c1ccc(-c2ccccc2)cc1", 7.39),
    ("COc1ccc(-c2ccc(S(=O)(=O)N(OC(C)C)[C@H](CCNC(=O)Cc3ccccc3)C(=O)NO)cc2)cc1", 7.61),
    ("CC(C)ON([C@H](CCNS(C)(=O)=O)C(=O)NO)S(=O)(=O)c1ccc(-c2ccccc2)cc1", 7.02),
    ("CC(C)ON([C@H](CCNC(=O)OCc1ccccc1)C(=O)NO)S(=O)(=O)c1ccc(-c2ccccc2)cc1 [Reference Compound (5b), reference compound]", 6.62),
]

Reported pIC50 for `CC(C)ON([C@H](CCNC(=O)c1ccccc1)C(=O)NO)S(=O)(=O)c1ccc(-c2ccccc2)cc1` was 7.03

====

Reported pIC50 for target or system UniProt P08253, by entry.
Sequence (P08253 110-660): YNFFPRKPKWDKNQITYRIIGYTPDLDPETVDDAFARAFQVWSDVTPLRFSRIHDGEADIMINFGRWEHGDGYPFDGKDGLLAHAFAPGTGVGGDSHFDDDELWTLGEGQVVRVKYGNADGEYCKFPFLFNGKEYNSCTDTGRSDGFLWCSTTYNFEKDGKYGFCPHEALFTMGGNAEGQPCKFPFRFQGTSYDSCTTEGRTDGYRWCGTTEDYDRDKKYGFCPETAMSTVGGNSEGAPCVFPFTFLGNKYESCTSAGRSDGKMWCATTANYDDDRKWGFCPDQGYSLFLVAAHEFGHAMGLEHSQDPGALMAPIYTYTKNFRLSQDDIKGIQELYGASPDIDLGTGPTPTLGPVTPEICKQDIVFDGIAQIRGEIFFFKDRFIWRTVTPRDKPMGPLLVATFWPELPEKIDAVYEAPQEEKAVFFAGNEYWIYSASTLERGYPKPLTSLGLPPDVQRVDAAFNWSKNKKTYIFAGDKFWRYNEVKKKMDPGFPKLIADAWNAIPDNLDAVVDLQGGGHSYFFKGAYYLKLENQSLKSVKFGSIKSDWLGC
Give bare numbers, as −log10 of the molar value.

Below, each entry is followed by its recorded pIC50 result.
# Compound, pIC50
data = [
    ("CC(C)ON([C@H](CCNC(=O)Cc1ccccc1)C(=O)NO)S(=O)(=O)c1ccc(-c2ccccc2)cc1", 8.84),
    ("CC(C)ON([C@H](CCNC(=O)OCc1ccccc1)C(=O)NO)S(=O)(=O)c1ccc(-c2ccccc2)cc1 [Reference Compound (5b), reference compound]", 8.08),
    ("CC(=O)NCC[C@H](C(=O)NO)N(OC(C)C)S(=O)(=O)c1ccc(-c2ccccc2)cc1", 9.48),
]

Okay, next one:
// compound `COc1ccc(-c2ccc(S(=O)(=O)N(OCCOCCN3CCNCC3)[C@H](CCNC(=O)OCc3ccccc3)C(=O)NO)cc2)cc1` , assay UniProt P08253, pIC50 value: 9.52

====

Assignment: determine reported log10(IC50) for the given compounds.
- Tested system: MMP-13 (Homo sapiens)
Values reflect log10 of reported IC50 (nM).

Below, each entry is followed by its recorded log10(IC50) result.
# Compound, Tested system, log10(IC50)
data = [
    ("CC(C)ON([C@H](CCNC(=O)c1ccccc1)C(=O)NO)S(=O)(=O)c1ccc(-c2ccccc2)cc1", "MMP-13 (Homo sapiens)", 0.66),
    ("CC(C)ON([C@H](CCNC(=O)Cc1ccccc1)C(=O)NO)S(=O)(=O)c1ccc(-c2ccccc2)cc1", "MMP-13 (Homo sapiens)", 0.15),
    ("COc1ccc(-c2ccc(S(=O)(=O)N(OC(C)C)[C@H](CCNC(=O)Cc3ccccc3)C(=O)NO)cc2)cc1", "MMP-13 (Homo sapiens)", -0.60),
    ("CC(=O)NCC[C@H](C(=O)NO)N(OC(C)C)S(=O)(=O)c1ccc(-c2ccccc2)cc1", "MMP-13 (Homo sapiens)", -0.17),
]

Reported log10(IC50) for CC(C)ON([C@H](CCNC(=O)OCc1ccccc1)C(=O)NO)S(=O)(=O)c1ccc(-c2ccccc2)cc1 [Reference Compound (5b), reference compound] was 0.64
